Documented viability increase across a set of compounds
# method notes: viability gain of MRP-1-high H69AR cells under doxorubicin, pilot screen, MRP-1 activator project, CellTiter-Glo, duplicate (AID 807);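 note: compound pretreatment 18-22 h then 72 h combined with doxorubicin; 0% = doxorubicin alone and 100% = vehicle without doxorubicin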
# condition description: H69AR viability with doxorubicin, CellTiter-Glo luminescence; at 10 µM; active compounds read high
Calls of active or inactive are those of the source.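 Rule for the calls: active = viability increase at or above a cutoff of the median across tested compounds plus 3 SD (cut at about 8.5% in these data, passing the limit was not always enough); inconclusive = some gains above the cutoff, reason not given; inactive = the rest.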
readout name: viability increase

[[record]]
compound = "O=C(NCc1cccnc1)c1nnc(Cc2ccc(F)cc2)o1"
readout_name = "viability increase"
result = "2.16% (inactive)"

[[record]]
compound = "COc1cccc(C2CC(=O)N3CN(c4ccccc4F)CSC3=C2C#N)c1 (stereo unspecified)"
readout_name = "viability increase"
result = "-1.76% (inactive)"

[[record]]
compound = "c1ccc(-c2noc(-c3cccnc3)n2)cc1"
readout_name = "viability increase"
result = "-3.8% (inactive)"

[[record]]
compound = "CCCCCSc1nc2c(c(=O)[nH]c(=O)n2C)n1CCc1ccccc1"
readout_name = "viability increase"
result = "-1.88% (inactive)"

[[record]]
compound = "COc1ccc(C2=NOC(C(=O)Nc3c(C)n(C)n(-c4ccccc4)c3=O)C2)cc1OC (stereo unspecified)"
readout_name = "viability increase"
result = "1.69% (inactive)"

[[record]]
compound = "Cc1cc(/C=N/n2cnnc2)c(C)n1-c1ccc(OCc2ccc(F)cc2)cc1"
readout_name = "viability increase"
result = "-5.79% (inactive)"

[[record]]
compound = "c1ccc(C(Cc2nc(-c3cccnc3)no2)c2ccccc2)cc1"
readout_name = "viability increase"
result = "0.35% (inactive)"

[[record]]
compound = "O=C(CSc1oc(-c2ccc(F)cc2)nc1S(=O)(=O)c1ccccc1)NCC1CCCO1 (stereo unspecified)"
readout_name = "viability increase"
result = "-5.58% (inactive)"

[[record]]
compound = "C=CCSC1=C(C#N)C(c2ccc(OCC)cc2)CC(=O)N1 (stereo unspecified)"
readout_name = "viability increase"
result = "-1.8% (inactive)"

[[record]]
compound = "COc1cc(S(=O)(=O)N2CCCCCC2)c(OC)cc1Br"
readout_name = "viability increase"
result = "-0.06% (inactive)"

[[record]]
compound = "COc1cc(CNC(=O)OCC(C)C)cc(OC)c1OC"
readout_name = "viability increase"
result = "-0.03% (inactive)"

